# STUDY TARGET: Sphingosine 1-phosphate receptor 1 (Homo sapiens) (UniProt P21453)
# Sequence (P21453 whole entry, looked up): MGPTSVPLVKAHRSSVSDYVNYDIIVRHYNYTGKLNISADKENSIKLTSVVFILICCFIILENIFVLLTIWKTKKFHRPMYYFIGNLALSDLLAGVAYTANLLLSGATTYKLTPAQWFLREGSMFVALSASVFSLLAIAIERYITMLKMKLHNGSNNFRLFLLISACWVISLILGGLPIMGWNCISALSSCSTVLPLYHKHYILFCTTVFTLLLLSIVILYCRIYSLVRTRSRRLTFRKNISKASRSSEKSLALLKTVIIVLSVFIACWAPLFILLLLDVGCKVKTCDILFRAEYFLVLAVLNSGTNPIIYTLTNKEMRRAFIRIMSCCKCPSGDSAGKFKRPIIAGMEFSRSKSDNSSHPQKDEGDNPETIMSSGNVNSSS
# PROTOCOL: S1P1 receptor agonists, late-stage follow-up, selectivity assay for S1P3 agonist project, cell-based, fluorescence, dose response, set 3 (AID 540368)
# MEASUREMENT CONDITIONS: run 3
Calls of active or inactive are those of the source. No rule for the calls is given here.
Your reply should match one of these outcome classes. active, inactive

{"MOLECULE": "O=C(c1coc(C2CC2)n1)N(C1CCCCC1)C1CCCCC1", "GROUP": "inactive"}

Now for another entry.
Identify the outcome logged in this assay for the molecule shown: O=C(c1cc(C2CC2)on1)N(Cc1ccccc1)Cc1ccccc1
inactive
